# test-protocol: Cmax in C57BL/6 mouse infected with Clostridioides difficile CD1264 at 10 mg/kg,po administrated upto 24 hrs by LC-MS/MS analysis
# Type: ADME, organism-based
# experimental-conditions: in vivo

>  <record-smiles>
O=C(O)c1cn(C2CC2)c2cc(N3CCC(O)(COc4ccc(N5C[C@H](CO)OC5=O)cc4F)CC3)c(F)cc2c1=O

>  <unit-abbrev>
ng/mL

>  <Cmax>
12

$$$$
